Taken from paper PMC6944674.

tested_on: human NTCP (Homo sapiens, UniProt Q14973)
Sequence (Q14973 whole entry): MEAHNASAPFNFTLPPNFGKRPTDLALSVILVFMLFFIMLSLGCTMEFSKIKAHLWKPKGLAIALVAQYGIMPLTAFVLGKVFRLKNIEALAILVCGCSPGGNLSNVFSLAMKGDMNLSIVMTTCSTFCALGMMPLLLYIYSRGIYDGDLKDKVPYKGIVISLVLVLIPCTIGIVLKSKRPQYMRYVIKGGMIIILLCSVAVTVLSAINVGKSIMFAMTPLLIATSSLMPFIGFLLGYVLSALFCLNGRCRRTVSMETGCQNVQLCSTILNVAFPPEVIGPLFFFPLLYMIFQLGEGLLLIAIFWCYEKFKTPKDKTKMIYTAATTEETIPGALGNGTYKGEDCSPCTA
procedure_details: NTCP inhibition in CHO cells stably expressing human NTCP (taurocholate)
experimental_context: read-out: NTCP inhibition constant (IC50)
recorded_metric: pIC50
In simple prose, pIC50 is minus the logarithm base ten of a concentration in moles per litre.

Fetch value of pIC50 on human NTCP (Homo sapiens, UniProt Q14973) for Cc1ccc(F)cc1C(=O)Nc1ccc(C(=O)N2Cc3cccn3Cc3ccccc32)c(Cl)c1 [Lixivaptan, lixivaptan] .
4.72

* * *

procedure_details: Intracellular concentration by LC/MS/MS in HepG2 cultures parallel to ROS high-content screening
Assay type: in vitro ADME
experimental_context: human, HepG2 cells; High content screening medium, dose 10 µM
recorded_metric: Kp at 10 µM
Lab note: jot down the number only; don't add units.

Write down Kp at 10 µM measured for item Cc1ccc(F)cc1C(=O)Nc1ccc(C(=O)N2Cc3cccn3Cc3ccccc32)c(Cl)c1
39.7
